molecular target: GCN2 kinase (Homo sapiens); experiment: GCN2 enzyme inhibition assay (Transcreener ADP2 fluorescence polarization); type: biochemical; conditions: compounds of Formula II; 280 μM ATP, 4 nM GCN2 kinase
Sequence (Q9P2K8 whole entry): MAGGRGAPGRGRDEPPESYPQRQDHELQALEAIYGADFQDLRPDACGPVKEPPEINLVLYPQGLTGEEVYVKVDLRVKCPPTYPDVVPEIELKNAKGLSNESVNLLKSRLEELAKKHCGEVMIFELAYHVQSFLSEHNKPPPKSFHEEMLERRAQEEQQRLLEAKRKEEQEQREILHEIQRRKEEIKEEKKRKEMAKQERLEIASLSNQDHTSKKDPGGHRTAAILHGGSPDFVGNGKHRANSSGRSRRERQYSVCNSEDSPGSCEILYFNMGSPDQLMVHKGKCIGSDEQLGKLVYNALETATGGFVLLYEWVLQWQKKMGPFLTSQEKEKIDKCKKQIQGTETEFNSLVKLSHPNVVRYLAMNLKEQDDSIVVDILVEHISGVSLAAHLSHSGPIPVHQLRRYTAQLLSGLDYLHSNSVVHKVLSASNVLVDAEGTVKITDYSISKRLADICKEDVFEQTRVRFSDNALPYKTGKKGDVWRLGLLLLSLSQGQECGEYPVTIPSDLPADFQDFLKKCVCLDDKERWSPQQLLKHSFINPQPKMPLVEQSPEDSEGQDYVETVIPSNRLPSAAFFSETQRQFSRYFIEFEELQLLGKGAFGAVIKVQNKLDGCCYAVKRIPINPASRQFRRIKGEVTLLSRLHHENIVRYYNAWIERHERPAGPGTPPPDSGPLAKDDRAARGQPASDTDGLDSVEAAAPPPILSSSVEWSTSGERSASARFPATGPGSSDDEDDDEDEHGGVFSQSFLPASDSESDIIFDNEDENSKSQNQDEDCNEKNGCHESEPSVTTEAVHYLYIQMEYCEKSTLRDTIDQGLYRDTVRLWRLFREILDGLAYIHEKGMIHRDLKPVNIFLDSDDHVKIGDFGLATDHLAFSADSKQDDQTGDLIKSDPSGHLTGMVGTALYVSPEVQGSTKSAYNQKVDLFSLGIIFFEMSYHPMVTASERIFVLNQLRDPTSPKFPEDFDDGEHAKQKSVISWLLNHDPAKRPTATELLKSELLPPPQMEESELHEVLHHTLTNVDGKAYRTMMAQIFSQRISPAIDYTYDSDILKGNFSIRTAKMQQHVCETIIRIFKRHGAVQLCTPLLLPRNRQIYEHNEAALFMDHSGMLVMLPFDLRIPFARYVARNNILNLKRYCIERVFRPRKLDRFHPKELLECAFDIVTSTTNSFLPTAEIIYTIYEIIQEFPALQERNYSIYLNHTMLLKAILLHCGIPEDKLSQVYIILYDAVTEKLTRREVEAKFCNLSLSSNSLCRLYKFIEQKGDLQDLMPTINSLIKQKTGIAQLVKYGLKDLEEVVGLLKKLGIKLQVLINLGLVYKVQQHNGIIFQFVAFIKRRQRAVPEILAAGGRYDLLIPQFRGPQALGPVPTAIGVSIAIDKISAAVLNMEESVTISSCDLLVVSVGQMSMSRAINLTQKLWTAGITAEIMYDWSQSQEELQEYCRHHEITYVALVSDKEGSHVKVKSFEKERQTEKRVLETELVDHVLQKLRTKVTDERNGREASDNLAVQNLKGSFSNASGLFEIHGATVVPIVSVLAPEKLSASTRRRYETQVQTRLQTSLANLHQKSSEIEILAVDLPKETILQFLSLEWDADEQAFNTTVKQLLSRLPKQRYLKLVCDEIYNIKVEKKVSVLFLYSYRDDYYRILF
Ki values for the compounds below.

Sample answers from the record:
CS(=O)(=O)N1CCCC(c2cc(-c3cnc4ccc(C(F)F)nn34)ncn2)CC1 (single isomer, unassigned) [II-275] ... 10 to 1000 nM
CCN1CCN(c2cc(-c3cnc4ccc(C(F)F)nn34)ncn2)C(C)C1CNS(C)(=O)=O (stereo not shown) [II-340] ... 10 to 1000 nM
OC[C@@H]1C[C@@H](C(F)(F)F)CN(c2cc(-c3cnc4ccc(C(F)F)nn34)ncn2)C1 ... 10 to 1000 nM

Exam item: I would be grateful if you could share the reported Ki for "OC1([C@@H]2CN(c3cc(-c4cnc5ccc(C(F)F)nn45)ncn3)CCN2)CC1" .
Marked response: 10 to 1000 nM
